Source listed as patent US20250262188A1.

Test: Plasma concentrations of SCO-101 and SN-38 in patients upon repeated administration of SCO-101 (Example 1)
Format: in vivo, human
Conditions: human, plasma, oral; 150 mg SCO-101 repeated every 24 hours; FIG. 1D; read-out: SCO-101 half-life after stopping the administration (converted)
Experimental: On days 1, 2, 3, 4, 5 and 6 in each treatment cycle, patients received one fixed daily dose of 150 mg SCO-101 taken in the morning at least 30 minutes before ingestion of food. […] Data were analysed using commercially available software such as Win-Non-Lin (available from Certara inc.) SCO-101 and Irinotecan was administered as described in the materials and methods section. Blood samples were withdrawn and analysed as specified. […]
assay readout: half-life

Look up half-life of "O=C(Nc1cc(C(F)(F)F)cc(C(F)(F)F)c1)Nc1ccc(Br)cc1-c1nnn[nH]1" and report it.
~24 h

---

Target: BCRP (Homo sapiens)
Construct: endogenous in cells; host or cells: HT29 parental and HT29 SN38-resistant colorectal cancer cells
Sequence (Q9UNQ0 1-655): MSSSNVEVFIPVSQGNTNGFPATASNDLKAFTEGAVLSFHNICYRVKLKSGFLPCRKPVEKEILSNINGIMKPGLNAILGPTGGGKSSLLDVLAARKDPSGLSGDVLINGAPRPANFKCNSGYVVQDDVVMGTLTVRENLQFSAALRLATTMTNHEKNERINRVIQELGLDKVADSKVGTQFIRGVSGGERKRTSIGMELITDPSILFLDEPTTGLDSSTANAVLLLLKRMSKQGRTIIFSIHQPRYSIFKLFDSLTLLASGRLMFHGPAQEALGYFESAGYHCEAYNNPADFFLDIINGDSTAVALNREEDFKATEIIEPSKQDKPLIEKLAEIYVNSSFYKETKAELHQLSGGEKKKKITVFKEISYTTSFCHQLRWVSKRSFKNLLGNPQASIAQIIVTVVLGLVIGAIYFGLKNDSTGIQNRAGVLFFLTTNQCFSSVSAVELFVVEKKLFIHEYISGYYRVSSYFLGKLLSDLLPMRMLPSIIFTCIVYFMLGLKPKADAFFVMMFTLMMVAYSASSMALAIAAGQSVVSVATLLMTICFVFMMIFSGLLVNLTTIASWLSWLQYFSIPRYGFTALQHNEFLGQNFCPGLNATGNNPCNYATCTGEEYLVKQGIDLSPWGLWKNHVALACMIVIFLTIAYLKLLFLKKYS
Test: 3H-SN-38 uptake in HT29 parental cell monolayers (Example 6)
Assay type: cell-based
Conditions: 25 μM test compound; HT29 parental; ANOVA α=0.05
assay readout: Uptake of SN-38 relative to blank HBSS transport buffer control

| compound | measured |
| --- | --- |
| O=C(Nc1cc(C(F)(F)F)ccc1N1CCCCC1)c1ccncc1 [Srpin340] | significant increase |
| Nc1ncnc2n[nH]c(Nc3ccc(F)cc3)c12 [CGP57380] | significant increase |
| Cc1cc(Nc2cc(N)ncn2)c(=O)n2c1C(=O)NC21CCCCC1 [Tomivorsetib] | significant increase |

---

Target: UniProtKB P22309
Sequence (P22309 26-533): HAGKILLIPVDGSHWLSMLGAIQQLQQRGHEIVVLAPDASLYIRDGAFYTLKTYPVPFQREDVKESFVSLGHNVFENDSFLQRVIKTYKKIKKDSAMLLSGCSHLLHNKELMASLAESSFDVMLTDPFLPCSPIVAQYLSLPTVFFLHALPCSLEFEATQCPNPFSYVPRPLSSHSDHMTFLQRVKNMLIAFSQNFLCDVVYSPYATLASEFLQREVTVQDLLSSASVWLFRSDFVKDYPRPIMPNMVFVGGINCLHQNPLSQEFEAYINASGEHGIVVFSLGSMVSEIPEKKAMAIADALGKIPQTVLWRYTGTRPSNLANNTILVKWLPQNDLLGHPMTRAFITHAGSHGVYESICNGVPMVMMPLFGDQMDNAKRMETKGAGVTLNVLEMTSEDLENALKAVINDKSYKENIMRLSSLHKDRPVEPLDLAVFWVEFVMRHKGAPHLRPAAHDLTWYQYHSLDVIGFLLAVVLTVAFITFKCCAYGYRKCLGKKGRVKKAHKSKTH
Test: In vitro UGT1A1 inhibition, recombinant human enzyme assays (Example 5)
Settings: read-out: IC50 towards UGT1A1
assay readout: IC50

State, in one line, measured IC50 of O=C(Nc1cc(C(F)(F)F)cc(C(F)(F)F)c1)Nc1ccc(Br)cc1-c1nnn[nH]1 [SCO-101]
~100 nM

---

assay: SN-38 PK profile and tolerability in metastatic colorectal cancer patients treated with SCO-101 and FOLFIRI (Example 2); format: in vivo, human; details: human, plasma, intravenous; SN-38 study: 150 mg SCO-101 + FOLFIRI, normalized to irinotecan 90 mg/m2, day 5; read-out: T½ hours (SD) (converted)
assay readout: half-life (h)
Numbers only here, please. The scale is h.

Determine its reported half-life: "CCc1c2c(nc3ccc(O)cc13)-c1cc3c(c(=O)n1C2)COC(=O)[C@]3(O)CC"
19

---

test: SN-38 PK profile and tolerability in metastatic colorectal cancer patients treated with SCO-101 and FOLFIRI (Example 2); type: in vivo, human; conditions: human, plasma, intravenous; SN-38 study: 150 mg SCO-101 + FOLFIRI, normalized to irinotecan 90 mg/m2; read-out: AUC_0-24 h*ng/ml (SD)
assay readout: AUC(0-t) (ng·h/mL)
The response must be a number in ng·h/mL with no trailing unit.

// Input: "CCc1c2c(nc3ccc(O)cc13)-c1cc3c(c(=O)n1C2)COC(=O)[C@]3(O)CC" . Output its AUC(0-t) only.
1420
